The measurements presented in this section are drawn from ChEMBL document CHEMBL2331277.

- Test system: Rattus norvegicus
- Method: Antiinflammatory activity against carrageenan-induced paw edema in Sprague-Dawley rat assessed as inhibition of paw volume at 30 mg/kg, po measured 180 mins post challenge by plethysmometer
- Type: functional
- Measurement Context: 3 h

{"Structure Notation": "COc1ccnc(CNc2ccc3[nH]c(C)nc3c2)c1OC", "Unit Descriptor": "%", "inhibition in vivo at 30 mg/kg": 61}
{"Structure Notation": "COc1c(C)cnc(CNc2ccc3c(c2)nc(C)n3C[C@@H](O)[C@H]2O[C@H](O)[C@@H](O)[C@H]2O)c1C", "Unit Descriptor": "%", "inhibition in vivo at 30 mg/kg": 56}
{"Structure Notation": "COc1ccnc(CNc2ccc3c(c2)nc(C)n3C[C@@H](O)[C@H]2O[C@H](O)[C@@H](O)[C@H]2O)c1C", "Unit Descriptor": "%", "inhibition in vivo at 30 mg/kg": 58}
{"Structure Notation": "COc1ccnc(CNc2ccc3c(c2)nc(C)n3C[C@@H](O)[C@H]2O[C@H](O)[C@@H](O)[C@H]2O)c1OC", "Unit Descriptor": "%", "inhibition in vivo at 30 mg/kg": 72}
{"Structure Notation": "Cc1nc2cc(NCc3ccccn3)ccc2n1C[C@@H](O)[C@H]1O[C@H](O)[C@@H](O)[C@H]1O", "Unit Descriptor": "%", "inhibition in vivo at 30 mg/kg": 52}
{"Structure Notation": "COc1ccnc(CNc2ccc3[nH]c(C)nc3c2)c1C", "Unit Descriptor": "%", "inhibition in vivo at 30 mg/kg": 55}
{"Structure Notation": "Cc1nc2cc(NCc3ccccn3)ccc2[nH]1", "Unit Descriptor": "%", "inhibition in vivo at 30 mg/kg": 45}
{"Structure Notation": "COc1c(C)cnc(CNc2ccc3[nH]c(C)nc3c2)c1C", "Unit Descriptor": "%", "inhibition in vivo at 30 mg/kg": 53}

---

- System: Rattus norvegicus
- Method: Antiulcerogenic activity in pylorus ligation-induced gastric ulcer Sprague-Dawley rat model assessed as pH of gastric juice at 3.6 mg/kg, po for 3 days (Rvb =2.60 +/-0.55 )
- Type: functional
Assign Criterion met to entries whose pH meets or exceeds 4; assign Criterion not met to the rest.

{"Compound": "COc1ccnc(CNc2ccc3c(c2)nc(C)n3C[C@@H](O)[C@H]2O[C@H](O)[C@@H](O)[C@H]2O)c1OC", "Category Label": "Criterion met"}
{"Compound": "COc1ccnc(CNc2ccc3[nH]c(C)nc3c2)c1OC", "Category Label": "Criterion not met"}
{"Compound": "COc1c(C)cnc(CNc2ccc3c(c2)nc(C)n3C[C@@H](O)[C@H]2O[C@H](O)[C@@H](O)[C@H]2O)c1C", "Category Label": "Criterion met"}
{"Compound": "COc1ccc2[nH]c([S+]([O-])Cc3ncc(C)c(OC)c3C)nc2c1 (stereo unspecified)", "Category Label": "Criterion met"}

---

- Tested on: Mus musculus
- Method: Antiulcerogenic activity in ethanol-induced gastric ulcer Swiss albino mouse model assessed as inhibition of ulceration at 3.6 mg/kg administered intragastrically for 3 days relative to control
- Assay type: functional
- Measurement Context: Stomach, po, 72 h, route intragastric

{"Compound": "COc1ccnc(CNc2ccc3c(c2)nc(C)n3C[C@@H](O)[C@H]2O[C@H](O)[C@@H](O)[C@H]2O)c1C", "inhibition in vivo at 3.6 mg/kg, %": 57.9}
{"Compound": "Cc1nc2cc(NCc3ccccn3)ccc2n1C[C@@H](O)[C@H]1O[C@H](O)[C@@H](O)[C@H]1O", "inhibition in vivo at 3.6 mg/kg, %": 46}
{"Compound": "COc1ccnc(CNc2ccc3[nH]c(C)nc3c2)c1OC", "inhibition in vivo at 3.6 mg/kg, %": 30}
{"Compound": "COc1ccc2[nH]c([S+]([O-])Cc3ncc(C)c(OC)c3C)nc2c1 (stereo unspecified)", "inhibition in vivo at 3.6 mg/kg, %": 68.3}
{"Compound": "COc1c(C)cnc(CNc2ccc3c(c2)nc(C)n3C[C@@H](O)[C@H]2O[C@H](O)[C@@H](O)[C@H]2O)c1C", "inhibition in vivo at 3.6 mg/kg, %": 62.6}
{"Compound": "COc1ccnc(CNc2ccc3c(c2)nc(C)n3C[C@@H](O)[C@H]2O[C@H](O)[C@@H](O)[C@H]2O)c1OC", "inhibition in vivo at 3.6 mg/kg, %": 61}
